Data origin, for the record: patent US20220204630A1

biological target: T1, TRKA protein with a histidine tag (human, UniProt P04629 33-423, limits assumed); test: BLI (Fortebio Octet RED96), His-tagged TRKA on Ni-NTA sensor, antibody 80-2.93 nM
T1 construct: it is put last here only for order; also called TRKA (50 µg/ml, 75 kDa, provided by HEC Labs); not shown: histidine tag
T1 sequence (P04629 33-423 limits assumed): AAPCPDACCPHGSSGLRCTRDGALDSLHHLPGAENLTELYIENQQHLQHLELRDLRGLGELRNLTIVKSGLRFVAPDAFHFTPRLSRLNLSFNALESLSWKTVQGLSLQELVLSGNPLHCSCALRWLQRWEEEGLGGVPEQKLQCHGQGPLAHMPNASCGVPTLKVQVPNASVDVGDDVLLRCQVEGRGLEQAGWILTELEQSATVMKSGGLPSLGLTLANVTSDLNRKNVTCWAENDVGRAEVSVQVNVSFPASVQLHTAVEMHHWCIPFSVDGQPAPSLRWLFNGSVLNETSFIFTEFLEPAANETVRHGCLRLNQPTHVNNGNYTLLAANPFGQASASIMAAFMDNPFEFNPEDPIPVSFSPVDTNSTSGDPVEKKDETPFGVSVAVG
pKd: −log10 of the molar value.
The reader will find reported pKd values listed item by item below.
measured quantity: pKd

[[record]]
binder = "27H3 chimeric antibody (antibody, human IgG4 S228P, kappa, F234A L235A, V domains shown, expressed in CHO cells) VH: QVQLQQSGAELMKPGASVKISCKTTGYRFSSYWIEWVKQRPGHGLEWLGEILPGRGIINYNENFRGKATFTADTSSNTAYVQLSSLTSEDSAVYFCARTDPPYFGVWGAGTTVTVSS VL: QAVVTQESALTTSPGETVTLTCRSSTGAVTISNYANWVQEKPDHLFTGLIGGTNNRPPGVPARFSGSLIGDKAALTITGAQTEDEAIYFCVLWYSNHWVFGGGTKLTVLR"
measured_value = 9.75

[[record]]
binder = "21E5 chimeric antibody (antibody, human IgG4 S228P, kappa, F234A L235A, V domains shown, expressed in CHO cells) VH: QVQLQQSGAELMKPGASMKISCKATGYTFSTYWIEWVKQRPGHGLEWIGENLPGRHITNYNEKFKGKATFTADTSSNTAYMQLSSLTSEDSAVYYCARGRGTYYFDYWGQGTPLTVSS VL: DIVMTQAAFSTPVTLGTSASISCRSSQSLLHSNGITYLYWYLQKPGQSPQLLIYQMSNLASGVPDRFSSSGSGTDFTLRISRVEAEDVGVYYCAQNLEFPFTFGSGTKLEIKR"
measured_value = 9.76

[[record]]
binder = "2008 chimeric antibody (antibody, human IgG4 S228P, kappa, F234A L235A, V domains shown, also called 20C8) VH: EVLLQQSGPELVKPGASMKISCKASVYSFTAYTMNWVKQSHGKNLEWIGLINPHNGGTRYNQKFKGKATLTLDKSSSTAYMDLLSLTSEDSAVYYCAISRYGSSSFYFDVWGAGTTVAVSS VL: QIVLSQSPAILSASPGEKVTMTCRASSSISYMHWYQQKPGSSPKPWISATSNLASGVPARFSGSGSGTSYSLTISGVEAEDAATYYCQQWSSNPPTFGGGTNLEIKR"
measured_value = 9.94

[[record]]
binder = "23E12 chimeric antibody (antibody, human IgG4 S228P, kappa, F234A L235A, V domains shown, expressed in CHO cells) VH: QVQLQQSGAELVRPGTSVKISCKASGYAFTNYWLGWMKQRPGHGLEWIGDFYPRTGNTFYNENFKGKVTLTADKSSNTAYMQLSSLTSEDSAVYLCARAGTGFDYWGQGTTLTVSS VL: SIVMTQSPKSMSMSVGERVTLSCKASENVGGYVSWYQQKPDQSPKLLIYGASSRHTGVPDRFTGSGSETDFTLTISSVQAEDLAAYHCGQNYIYPFTFGGGTKLEIKR"
measured_value = 10.24

